All values here come from patent US10844027B2.

- Tested target: human mu-opioid receptor (MOR) (Homo sapiens, UniProt P35372)
- Sequence (P35372 whole entry): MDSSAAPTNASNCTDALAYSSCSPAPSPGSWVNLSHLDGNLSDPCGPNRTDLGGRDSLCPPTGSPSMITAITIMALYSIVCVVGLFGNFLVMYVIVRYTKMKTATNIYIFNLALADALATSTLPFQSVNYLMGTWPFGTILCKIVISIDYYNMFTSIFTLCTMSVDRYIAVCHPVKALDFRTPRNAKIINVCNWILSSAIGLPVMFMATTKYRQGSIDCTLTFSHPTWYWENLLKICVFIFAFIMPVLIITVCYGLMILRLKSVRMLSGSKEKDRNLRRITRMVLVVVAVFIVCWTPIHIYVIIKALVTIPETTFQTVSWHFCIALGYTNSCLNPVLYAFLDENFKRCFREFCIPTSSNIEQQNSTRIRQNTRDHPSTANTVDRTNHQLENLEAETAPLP
- Method: BRET assay measuring G protein activation, agonist activity at human MOR
Counter-ions that a name gives are not always drawn.

Compound | Measurement unit | EC50
CN1c2ccccc2C(NCCCCC(=O)O)c2ccc(I)cc2S1(=O)=O (stereo not drawn) [Compound 7e, hydrochloride salt] | nM | 18.3
CN1c2ccccc2C(NCCC(=O)O)c2ccc(I)cc2S1(=O)=O (stereo not drawn) [Compound 7b, hydrochloride salt] | nM | 1200
CCOC(=O)CCCNC1c2ccccc2N(C)S(=O)(=O)c2cc(Br)ccc21 (stereo not drawn) | nM | 270
CN1c2ccccc2C(NCCCCCC(=O)O)c2ccc(I)cc2S1(=O)=O (stereo not drawn) [Compound 7g, hydrochloride salt] | nM | 24.3
CN1c2ccccc2C(NCCC(=O)O)c2ccc(Br)cc2S1(=O)=O (stereo not drawn) [Compound 7a, hydrochloride salt] | nM | 4700
CN1c2ccccc2C(NCCCC(=O)O)c2ccc(Br)cc2S1(=O)=O (stereo not drawn) [Compound 7c, hydrochloride salt] | nM | 2000

---

- Tested target: human delta-opioid receptor (DOR) (Homo sapiens, UniProt P41143)
- Sequence (P41143 whole entry): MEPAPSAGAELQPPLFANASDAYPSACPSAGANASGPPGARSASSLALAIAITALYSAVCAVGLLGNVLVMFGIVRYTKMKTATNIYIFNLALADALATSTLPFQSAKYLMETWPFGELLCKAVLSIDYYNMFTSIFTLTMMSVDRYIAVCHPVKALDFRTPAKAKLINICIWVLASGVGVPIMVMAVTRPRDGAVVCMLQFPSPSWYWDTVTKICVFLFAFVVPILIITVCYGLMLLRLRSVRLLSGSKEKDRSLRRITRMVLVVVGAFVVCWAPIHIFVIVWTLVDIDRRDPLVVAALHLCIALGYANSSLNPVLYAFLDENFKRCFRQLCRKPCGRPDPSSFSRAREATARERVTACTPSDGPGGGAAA
- Method: BRET assay measuring G protein activation, agonist activity at human DOR
Where a name gives a salt, the structure may show the parent alone.
// returns not fulfilled unless EC50 is strictly below 10 µM, in which case fulfilled

Compound | Tested target | Category
CCOC(=O)CCCCCNC1c2ccccc2N(C)S(=O)(=O)c2cc(Cl)ccc21 (centres unmarked) | human delta-opioid receptor (DOR) (Homo sapiens, UniProt P41143) | not fulfilled
CCOC(=O)CCCCCNC1c2ccccc2N(C)S(=O)(=O)c2cc(Br)ccc21 (centres unmarked) | human delta-opioid receptor (DOR) (Homo sapiens, UniProt P41143) | not fulfilled
CN1c2ccccc2C(NCCC(=O)O)c2ccc(I)cc2S1(=O)=O (centres unmarked) [Compound 7b, hydrochloride salt] | human delta-opioid receptor (DOR) (Homo sapiens, UniProt P41143) | not fulfilled
CCOC(=O)CCCCCNC1c2ccccc2N(C)S(=O)(=O)c2cc(I)ccc21 (centres unmarked) | human delta-opioid receptor (DOR) (Homo sapiens, UniProt P41143) | fulfilled
CCOC(=O)CCCCNC1c2ccccc2N(C)S(=O)(=O)c2cc(I)ccc21 (centres unmarked) | human delta-opioid receptor (DOR) (Homo sapiens, UniProt P41143) | fulfilled
CN1c2ccccc2C(NCCCCCCC(=O)O)c2ccc(Cl)cc2S1(=O)=O (centres unmarked) [Tianeptine, tianeptine, reference compound] | human delta-opioid receptor (DOR) (Homo sapiens, UniProt P41143) | not fulfilled
CN1c2ccccc2C(NCCC(=O)O)c2ccc(Br)cc2S1(=O)=O (centres unmarked) [Compound 7a, hydrochloride salt] | human delta-opioid receptor (DOR) (Homo sapiens, UniProt P41143) | not fulfilled
CN1c2ccccc2C(NCCCC(=O)O)c2ccc(Br)cc2S1(=O)=O (centres unmarked) [Compound 7c, hydrochloride salt] | human delta-opioid receptor (DOR) (Homo sapiens, UniProt P41143) | not fulfilled

---

- Tested target: human mu-opioid receptor (MOR) (Homo sapiens, UniProt P35372)
- Method: BRET assay measuring G protein activation, agonist activity at human MOR
- Procedure: After 24 hours the media was changed, and the experiment was performed 24 hours later (48 hours after transfection). Transfected cells were dissociated and re-suspended in phosphate-buffered saline (PBS). […] The microplate was centrifuged and the cells were re-suspended in PBS. […] Following coelenterazine H addition, ligands were added and the BRET signal was measured at 5 minutes on a PHERAstar FS plate reader. […]
Counter-ions that a name gives are not always drawn.

Compound | Measurement unit | EC50
CCOC(=O)CCNC1c2ccccc2N(C)S(=O)(=O)c2cc(I)ccc21 (stereo not shown) | nM | 1600
CN1c2ccccc2C(NCCCCCC(=O)O)c2ccc(Br)cc2S1(=O)=O (stereo not shown) [Compound 7f, hydrochloride salt] | nM | 133
CN1c2ccccc2C(NCCCCC(=O)O)c2ccc(Cl)cc2S1(=O)=O.Cl (stereo not shown) [Compound 7i, hydrochloride salt] | nM | 361
CCOC(=O)CCCCCNC1c2ccccc2N(C)S(=O)(=O)c2cc(Br)ccc21 (stereo not shown) | nM | 90.8
